Biological target: Scn(C87S/K134A) (Homo sapiens, UniProt P80188, C107S/K154A)
Sequence (P80188 21-198 C107S/K154A): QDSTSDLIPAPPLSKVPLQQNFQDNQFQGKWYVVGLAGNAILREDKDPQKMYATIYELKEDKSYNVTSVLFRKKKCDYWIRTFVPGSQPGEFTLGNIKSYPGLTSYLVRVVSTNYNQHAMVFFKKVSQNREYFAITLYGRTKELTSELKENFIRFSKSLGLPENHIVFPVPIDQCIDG
Test: FQ binding assay, Scn(C87S/K134A) mutant
Settings: FQ; huScn (K134A)
measurement_name: Kd (nM)

1) O=C(N[C@H]1COC(=O)[C@@H](NC(=O)c2cccc(O)c2O)COC(=O)[C@@H](NC(=O)c2cccc(O)c2O)COC1=O)c1cccc(O)c1O.[Fe] [Fe-ENT] :: 10
